- SYSTEM_UNDER_TEST: T1, full-length human Tau (Tau441; 2N4R), recombinant (human, UniProt P10636 1-758)
- T1 construct: made in E. coli, His6-Smt3 tag removed; biotinylated through amines for Octet and phage work; also called r-Tau; recombinant Tau
- EXPERIMENTAL_DETAILS: SPR Biacore
READOUT_KIND: koff (s⁻¹)
// note: answer is a bare numeric in s⁻¹

Input: What value of measured koff is listed for hu1C7.v2 (S49A) (antibody, V domains shown) VH: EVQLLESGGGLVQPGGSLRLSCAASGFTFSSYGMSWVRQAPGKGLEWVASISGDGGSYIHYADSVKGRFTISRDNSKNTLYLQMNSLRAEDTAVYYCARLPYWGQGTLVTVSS VL: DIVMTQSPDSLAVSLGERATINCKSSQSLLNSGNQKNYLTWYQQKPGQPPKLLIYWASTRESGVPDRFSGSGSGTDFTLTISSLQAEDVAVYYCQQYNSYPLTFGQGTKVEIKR ?
Output: 0.0011

Input: What value of measured koff is listed for Clone with H3_1 (antibody, V domains shown) VH: EVQLLESGGGLVQPGGSLRLSCAASGFTFSSYGMSWVRQAPGKGLEWVASISGDGGSYIHYADSVKGRFTISRDNSKNTLYLQMNSLRAEDTAVYYCAKLPFWGQGTLVTVSS VL: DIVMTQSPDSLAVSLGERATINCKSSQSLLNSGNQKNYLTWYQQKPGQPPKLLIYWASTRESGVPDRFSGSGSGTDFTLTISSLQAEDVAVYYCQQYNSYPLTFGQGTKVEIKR ?
Output: 0.000478

Input: What value of measured koff is listed for Clone with H1_5 (antibody, V domains shown) VH: EVQLLESGGGLVQPGGSLRLSCAASVIKWRIYGMSWVRQAPGKGLEWVASISGDGGSYIHYADSVKGRFTISRDNSKNTLYLQMNSLRAEDTAVYYCARLPYWGQGTLVTVSS VL: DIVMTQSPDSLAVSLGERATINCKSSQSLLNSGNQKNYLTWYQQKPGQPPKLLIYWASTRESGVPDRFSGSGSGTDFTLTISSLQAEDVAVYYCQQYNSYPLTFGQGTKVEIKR ?
Output: 0.000244
